Data provenance: ChEMBL document CHEMBL1144707

For each of the compounds below, state its IC50.
# Test system: HCT-8
# protocol: Cytotoxicity against human HCT8 cells
# Format: functional, cell-based
A number alone suffices; assume µg/mL.

Note down IC50 recorded for `CC/C=C/[C@H](CC)C[C@]1(CC)C=C(CC)/C(=C/C(=O)OC)O1`
7.2

Specify reported IC50 for the compound shown: `CCCC[C@H](CC)C[C@]1(CC)C=C(CC)/C(=C\C(=O)OC)O1`
8

Provide measured IC50 value, entry: `CC/C=C/[C@H](CC)C[C@@]1(C)C[C@@H](CC)[C@@H](CC(=O)OC)OO1`
3

----------
# Tested on: Trypanosoma cruzi
# protocol: Antitrypanosomal activity against Trypanosoma cruzi Y infected in […] LLC-MK2 cells after 24 hrs by MTT assay
# Type: functional, organism-based
# stated_conditions: LLC-MK2, 24 h
reported_property: IC50
Remember to quote the unit after the number.

Provide measured IC50 value, entry: `CCCC[C@H](CC)C[C@]1(CC)C=C(CC)/C(=C\C(=O)OC)O1`
31.6 µg/mL

Supply recorded IC50 for CC/C=C/[C@H](CC)C/C(=C/[C@@]1(CC)C[C@H](CC)[C@H](CC(=O)O)OO1)CC [PLAKORTIDE N] here.
2.3 µg/mL

Give IC50 for the following compound: `CC/C=C/[C@H](CC)C[C@]1(CC)C=C(CC)/C(=C/C(=O)OC)O1`
16.5 µg/mL

Give the reported IC50 for this compound. O=C(Cn1ccnc1[N+](=O)[O-])NCc1ccccc1 [BENZNIDAZOLE]
36.3 µg/mL

Provide one value: measured IC50 of CC/C=C/[C@H](CC)C[C@]1(C)C=C(CC)/C(=C/C(=O)OC)O1 [SPONGOSORITIN A]
25.7 µg/mL
